pIC50: −log10 of the molar value.
Note to self: these compounds have pIC50 reported for UniProtKB P21397 in various publications.
Assay Metric: pIC50

>>> val("O=C(Nc1ccc(O)cc1)c1coc2ccccc2c1=O")
5.32

a: O=c1oc2cc(OCc3ccccc3)ccc2s1
b: Nc1n[nH]c(NCc2ccccc2Oc2ccc3ccccc3c2)n1
c: C#CCNCc1ccnc2c(O)cccc12
Request: In this exercise, place the 3 compounds in ascending sequence of their recorded pIC50. To answer, arrange all of the labels according to the requested order.
Response: b, a, c
(b: 4.10, a: 5.29, c: 5.62)

----------
pIC50: −log10 of the molar value.
The entries that follow carry pIC50 values tested on Amine oxidase [flavin-containing] A (Homo sapiens), drawn from several published reports.
Sequence (P21397 whole entry): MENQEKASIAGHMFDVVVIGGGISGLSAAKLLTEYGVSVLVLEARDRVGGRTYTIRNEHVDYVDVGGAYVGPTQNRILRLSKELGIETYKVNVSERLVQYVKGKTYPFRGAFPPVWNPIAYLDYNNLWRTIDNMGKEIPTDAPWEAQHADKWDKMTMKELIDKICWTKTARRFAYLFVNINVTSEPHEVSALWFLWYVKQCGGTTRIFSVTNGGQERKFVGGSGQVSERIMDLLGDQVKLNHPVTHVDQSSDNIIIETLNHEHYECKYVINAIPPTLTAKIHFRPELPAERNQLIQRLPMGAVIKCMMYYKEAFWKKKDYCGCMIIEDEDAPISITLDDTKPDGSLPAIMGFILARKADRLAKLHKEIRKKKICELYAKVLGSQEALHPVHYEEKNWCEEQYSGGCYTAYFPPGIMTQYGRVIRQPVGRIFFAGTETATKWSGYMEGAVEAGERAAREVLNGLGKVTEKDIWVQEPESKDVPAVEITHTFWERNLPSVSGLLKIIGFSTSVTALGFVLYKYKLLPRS
Assay Metric: pIC50

1: COc1ncccc1CN[C@H]1[C@H]2Cc3ccccc3[C@H]21 (racemic)
2: C/C(=N/Nc1nc(-c2ccc(F)cc2F)cs1)c1ccccc1
3: CN1c2c(nn(-c3ccc(/C=N/NC(=S)Nc4ccccc4Cl)cc3)c2-c2ccccc2)-c2ccccc2S1(=O)=O
Request: Order the entries above from lowest to highest pIC50. As an answer, provide the labels arranged in the order called for.
Response: 1, 3, 2
(1: 4.10, 3: 4.47, 2: 4.67)
